Tested on: NCI-H522 lung
Assay: NCI tumour cell line growth inhibition, 48 h
QUANTITY MEASURED: TGI (µM)
Give bare numbers, in µM.

smiles_record=N#C[Se]Cc1cc(-c2ccccc2)n(-c2ccc(S(N)(=O)=O)cc2)n1 tested_target="NCI-H522 lung" data_value=5.55
smiles_record=Cc1c2cnccc2c(C)c2c1c1cc(C#N)ccc1n2C tested_target="NCI-H522 lung" data_value=0.817

We next turn to a different molecule, shown below.
Param readout = TGI; param system = NCI-H522 lung; param query = O=C(/C=C/c1ccccc1)Oc1cccc2cccnc12 ; response: value
5.31

----------
Test system: OVCAR-5 ovarian
Experiment: NCI tumour cell line growth inhibition, 48 h
QUANTITY MEASURED: TGI

Some compounds with recorded TGI:
compound=Nc1n(CC(=O)c2ccccc2)nc2sc(-c3ccccc3)n[n+]12 quantity_measured=TGI data_value="> 100 µM"
compound=Cc1cc2c(C)nn(Cc3ccccc3)c2c(C(=O)O)c1C quantity_measured=TGI data_value="> 100 µM"
compound=COc1cc(/C=C/C(=O)/C=C/c2cc(OC)c3c(c2)OCO3)cc2c1OCO2 quantity_measured=TGI data_value="> 100 µM"

Please give TGI, item by item, for the list that follows.
1. Cc1ccc(C(=N)c2ccccc2Cc2cccc3ccccc23)c2ccccc12
2. CN(C)CC(O)c1ccc(Cl)c2ccccc12 (stereo unspecified)
3. O=C(O)CCNS(=O)(=O)c1ccc(NC(=O)c2ccccc2)cc1
4. CCN1C(=O)N(CC)C2C1NN=c1s/c(=C\c3ccc(Cl)cc3Cl)c(=O)n12 (stereo unspecified)

1: > 100 µM; 2: > 100 µM; 3: > 100 µM; 4: > 81.5 µM
